# credit: patent US9447086B2

Assay: Mouse SDPK (single dose PK in male ICR mouse, plasma and liver)
Type: in vivo
Settings: mouse; male ICR mice; plasma; dose 1 mg/kg IV; read-out: Plasma AUC(0-∞) (IV)
Entries and their measured AUC(0-inf) follow.
Lab book: enter the figure in ng·h/mL, no units written.

Reference set (2 entries):
Task: // lookup AUC(0-inf) for COC(=O)C1=C(CN2CC(F)(F)C[C@H]2C(=O)O)NC(c2nc(C)cs2)=N[C@H]1c1ccc(F)cc1Cl
Result: 290

Task: Next record, please: COC(=O)C1=C(CN2CCOC[C@H]2C(=O)O)N=C(c2nccs2)N[C@H]1c1ccc(F)cc1Cl
Result: 878

Now consider the entry below.
Task: // lookup AUC(0-inf) for COC(=O)C1=C(CN2CC(F)(F)C[C@H]2C(=O)O)NC(c2nccs2)=N[C@H]1c1ccc(F)cc1Cl
Result: 995
